Target: Recombinant human IL-1β (BioLegend 579404) (human, UniProt P01584 117-269)
Assay: cell-based or functional assay
Starred links: 1 amine or outer side, 2 acyl side, 3 side chain; linkers in the order of their positions; H or OH if unused. Non-standard residues stand in square brackets, D forms with d. AEFcHex = (S)-2-amino-3-(4-(2-(cyclohexanecarboxamido)ethoxy)phenyl)propanoic acid, O=C(NCCOc1ccc(C[C@H](N[*:1])C(=O)[*:2])cc1)C1CCCCC1; Phe(4-(5-CO2H-2-pyrimidyl)) = N[C@@H](Cc1ccc(-c2ncc(C(=O)O)cn2)cc1)C(=O)O; dPro(4R-(4-pyridylmethyl)) = O=C(O)[C@H]1C[C@@H](Cc2ccncc2)CN1; Trp(βS-Me,4-F) = C[C@@H](c1c[nH]c2cccc(F)c12)[C@H](N)C(=O)O; Phe(2-Cl,4-COOH) = N[C@@H](Cc1ccc(C(=O)O)cc1Cl)C(=O)O; 1Nal(3S-Me) = C[C@@H](c1cccc2ccccc12)[C@H](N)C(=O)O; Ala(pyrimidin-5-yl) = N[C@@H](Cc1cncnc1)C(=O)O; Phe(4-COOH) = N[C@@H](Cc1ccc(C(=O)O)cc1)C(=O)O; Bip = N[C@@H](Cc1ccc(-c2ccccc2)cc1)C(=O)O; Pro(cis-4-F) = O=C(O)[C@@H]1C[C@H](F)CN1; Ala(4-THP) = N[C@@H](CC1CCOCC1)C(=O)O; d(αMeD) = C[C@@](N)(CC(=O)O)C(=O)O; 4Pal = N[C@@H](Cc1ccncc1)C(=O)O; Dab = NCC[C@H](N)C(=O)O; Aib = CC(C)(N)C(=O)O
property: MRC5 IC50 (nM)
Give bare numbers, in nM.

- cyclo([Phe(4-(5-CO2H-2-pyrimidyl))][4Pal][Phe(2-Cl,4-COOH)]G[Pro(cis-4-F)][1Nal(3S-Me)][Aib]SW[d(αMeD)][Ala(4-THP)]Q[Dab]G[dPro(4R-(4-pyridylmethyl))]) (ring closure inferred) [SEQ ID NO 360]: 0.019
- cyclo([Bip][4Pal][Phe(4-COOH)]G[Pro(cis-4-F)][Trp(βS-Me,4-F)][Aib]SW[d(αMeD)][Ala(pyrimidin-5-yl)]Q[Dab]G[dPro(4R-(4-pyridylmethyl))]) (ring closure inferred) [SEQ ID NO 333]: 0.022

Requested read-out: MRC5 IC50. Entry: cyclo([AEFcHex][4Pal][Phe(4-COOH)]G[Pro(cis-4-F)][Trp(βS-Me,4-F)][Aib]SW[Aib][Ala(pyrimidin-5-yl)]Q[Dab]G[dPro(4R-(4-pyridylmethyl))]) (ring closure inferred; not fully specified (N-terminus)) [SEQ ID NO 301] 0.017
